Assay: Study of dynamic solubility (saturated solution, HPLC)
Assay type: physicochemical
Settings: FeSSIF (pH = 5.0), 1 h
From the text: The high performance liquid chromatography (HPLC) data were collected in an Agilent 1260, and the used detector was a diode array detector (DAD). The HPLC method as described in the invention has the following parameters: […]
readoutLabel: Solubility (mg/mL)

See these solved cases before continuing.
molecule	unitsLabel	measValue
N#Cc1ccc(Oc2ccc3c(c2)COB3O)cc1 [Crystal form II]	mg/mL	0.018
N#Cc1ccc(Oc2ccc3c(c2)COB3O)cc1 [Crystal form IV]	mg/mL	0.062

I: N#Cc1ccc(Oc2ccc3c(c2)COB3O)cc1 [Crystal form I]
II: N#Cc1ccc(Oc2ccc3c(c2)COB3O)cc1 [Crystal form III]
Compare the recorded Solubility of I and II ; state which is larger. Write down the label attached to your selection.
I
(I: 0.044 mg/mL, II: 0.025 mg/mL)
